# measurementProtocol: in vitro
# testParameters: human, uninfected MT-4 cells
Rule: CC50 at 5 days below 30 µM gives 1.0, anything at or above gives 0.0.

Query: # strict comparison: is reported CC50 at 5 days < 30 µM? input = C[C@H]1CCC2(N=c3ccccc3=N2)[C@H]2CN1C(=O)c1c(O)c(=O)c(C(=O)NCc3c(F)cc(F)cc3F)cn12
Response: 0.0

Query: Is CC50 at 5 days strictly under 30 µM for the entry C[C@H]1CC[C@]2(CC(=O)NO2)[C@H]2CN1C(=O)c1c(O)c(=O)c(C(=O)NCc3c(F)cc(F)cc3F)cn12 ?
Response: 0.0

Query: hey, is CC50 at 5 days for C[C@H]1CC[C@]2(CC(=O)N(Cc3cccc4ccccc34)O2)[C@H]2CN1C(=O)c1c(O)c(=O)c(C(=O)NCc3c(F)cc(F)cc3F)cn12 lower than 30 µM or not?
Response: 0.0

Query: Does this compound meet the criterion CC50 at 5 days < 30 µM? C[C@H]1CC[C@]2(CC(=O)N(Cc3ccc(F)cc3)O2)[C@H]2CN1C(=O)c1c(O)c(=O)c(C(=O)NCc3c(F)cc(F)cc3F)cn12 (single isomer, unassigned)
Response: 0.0

Query: Confirm or reject: CC50 at 5 days of COC1=NO[C@@]2(CC[C@@H](C)N3C[C@H]2n2cc(C(=O)NCc4c(F)cc(F)cc4F)c(=O)c(O)c2C3=O)C1 lies strictly below 30 µM
Response: 1.0

Query: Does C[C@H]1CC[C@]2(CC(=O)N(Cc3nc4ccccc4s3)O2)[C@H]2CN1C(=O)c1c(O)c(=O)c(C(=O)NCc3c(F)cc(F)cc3F)cn12 have CC50 at 5 days strictly under 30 µM?
Response: 0.0

Query: is_below(CC50 at 5 days, 30 µM) for C[C@H]1CC[C@]2(CC(C#CC(C)(C)O)=NO2)[C@H]2CN1C(=O)c1c(O)c(=O)c(C(=O)NCc3c(F)cc(F)cc3F)cn12 ?
Response: 1.0

Query: Say whether its CC50 at 5 days is strictly beneath 30 µM. Entry: CCn1c(CN2O[C@@]3(CC[C@H](C)N4C[C@H]3n3cc(C(=O)NCc5c(F)cc(F)cc5F)c(=O)c(O)c3C4=O)CC2=O)nc2ccccc21
Response: 0.0

Query: Is CC50 at 5 days strictly under 30 µM for the entry C[C@H]1CC[C@]2(CC(N(C)C)=NO2)[C@H]2CN1C(=O)c1c(O)c(=O)c(C(=O)NCc3c(F)cc(F)cc3F)cn12 ?
Response: 1.0

Query: Does the reported CC50 at 5 days of the following compound sit strictly below 30 µM? C[C@H]1CC[C@]2(CO[C@H](Cc3ccccc3)O2)[C@H]2CN1C(=O)c1c(O)c(=O)c(C(=O)NCc3c(F)cc(F)cc3F)cn12
Response: 1.0

Query: Is the reported CC50 at 5 days for CC1=NO[C@@]2(CC[C@H](CF)N3C[C@H]2n2cc(C(=O)NCc4c(F)cc(F)cc4F)c(=O)c(O)c2C3=O)C1 strictly below 30 µM?
Response: 1.0

Query: Does C[C@H]1CC[C@]2(OC[C@@H](Cc3ccccc3)O2)[C@H]2CN1C(=O)c1c(O)c(=O)c(C(=O)NCc3c(F)cc(F)cc3F)cn12 (single isomer, unassigned) [169 (peak 2)] have CC50 at 5 days strictly under 30 µM?
Response: 0.0

Query: Report whether reported CC50 at 5 days is lower than 30 µM (strictly) for C[C@H]1CC[C@]2(CC(CF)=NO2)[C@H]2CN1C(=O)c1c(O)c(=O)c(C(=O)NCc3c(F)cc(F)cc3F)cn12
Response: 1.0

Query: Problem: For the compound C[C@@H](F)C1=NO[C@@]2(CC[C@H](C)N3C[C@H]2n2cc(C(=O)NCc4c(F)cc(F)cc4F)c(=O)c(O)c2C3=O)C1 , is CC50 at 5 days under 30 µM?
Response: 1.0

Query: Does the reported CC50 at 5 days of the following compound sit strictly below 30 µM? C[C@H]1CC[C@]2(CC(CCCCCl)=NO2)[C@H]2CN1C(=O)c1c(O)c(=O)c(C(=O)NCc3c(F)cc(F)cc3F)cn12
Response: 1.0

Query: Is CC50 at 5 days strictly under 30 µM for the entry COC1=NO[C@@]2(CC[C@H](C)N3C[C@H]2n2cc(C(=O)NCc4c(F)cc(F)cc4F)c(=O)c(O)c2C3=O)[C@@H]1F ?
Response: 1.0

Query: Is it true that CC50 at 5 days reported for C[C@H]1CC[C@@]2(COCO2)[C@H]2CN1C(=O)c1c(O)c(=O)c(C(=O)NCc3c(F)cc(F)cc3F)cn12 is less than 30 µM?
Response: 1.0

Query: Just wondering, is CC50 at 5 days of CC1=NO[C@]2(CC[C@H](C)N3C[C@H]2n2cc(C(=O)NCc4ccc(F)cc4F)c(=O)c(O)c2C3=O)C1 below 30 µM?
Response: 0.0

----------
For each record, write down the corresponding pEC50.
# Test system: HIV-1 (IIIB)
# measurementProtocol: microbe, parasite or virus in culture
# Format: cell-based
# testParameters: Human immunodeficiency virus 1, IIIB, MT4, 120 h, HIV-1 (IIIB) in MT-4 cells, 5 days incubation, Cell Titer Glo; read-out: MT4 EC50
API: returns pEC50 as number; meaning -log10 of concentration in mol/L.

For reference, reported pEC50 for C[C@H]1CC[C@]2(CC(CO)=NO2)[C@H]2CN1C(=O)c1c(O)c(=O)c(C(=O)NCc3ccc(F)cc3F)cn12 stands at 8.59

Entry C[C@H]1CC[C@]2(CC(n3cccn3)=NO2)[C@H]2CN1C(=O)c1c(O)c(=O)c(C(=O)NCc3c(F)cc(F)cc3F)cn12 — recorded pEC50 = 8.54

pEC50 reported for this molecule C[C@H]1CC[C@]2(CC(c3cccnc3)=NO2)[C@H]2CN1C(=O)c1c(O)c(=O)c(C(=O)NCc3ccc(F)cc3F)cn12 : 8.80

Reported pEC50 ( C[C@H]1CC[C@]2(CNC(=O)C2)[C@H]2CN1C(=O)c1c(O)c(=O)c(C(=O)NCc3c(F)cc(F)cc3F)cn12 ) = 7.11

Form: molecule = C[C@H]1CC[C@]2(COCO2)[C@H]2CN1C(=O)c1c(O)c(=O)c(C(=O)NCc3c(F)cc(F)cc3F)cn12 ; pEC50 = 9.05

The molecule O=C(NCc1ccc(F)cc1F)c1cn2c(c(O)c1=O)C(=O)N1CCCC3(CC3)[C@H]2C1 [Reference Compound C, reference compound] showed pEC50 equal to 8.92

Summary for this molecule, CC1=NO[C@@]2(CC[C@H](C)N3C[C@H]2n2cc(C(=O)NCc4ccc(F)cc4F)c(=O)c(O)c2C3=O)[C@@H]1O : pEC50 is 8.92

Reported pEC50 for CNC1=NO[C@@]2(CC[C@H](C)N3C[C@H]2n2cc(C(=O)NCc4c(F)cc(F)cc4F)c(=O)c(O)c2C3=O)C1 was 8.89

molecule C[C@H]1CC[C@]2(CC(C(F)F)=NO2)[C@H]2CN1C(=O)c1c(O)c(=O)c(C(=O)NCc3c(F)cc(F)cc3F)cn12 , pEC50 observed: 8.92

----------
# measurementProtocol: in vitro
# testParameters: human, uninfected MT-4 cells
// classify: if (CC50 at 5 days < 30 µM) criterion met else criterion not met

Query: Just wondering, is CC50 at 5 days of CC(C)C1=NO[C@@]2(CC[C@H](C)N3C[C@H]2n2cc(C(=O)NCc4ccc(F)cc4F)c(=O)c(O)c2C3=O)C1 below 30 µM?
Response: criterion not met

Query: is_below(CC50 at 5 days, 30 µM) for C[C@H]1CC[C@@]2(CC(C#CC(C)(C)S(C)(=O)=O)=NO2)[C@H]2CN1C(=O)c1c(O)c(=O)c(C(=O)NCc3c(F)cc(F)cc3F)cn12 ?
Response: criterion not met

Query: Given COC1=NO[C@]2(CC[C@H](C)N3C[C@H]2n2cc(C(=O)NCc4c(F)cc(F)cc4F)c(=O)c(O)c2C3=O)C1 , is recorded CC50 at 5 days strictly lower than 30 µM?
Response: criterion not met

Query: Could you please tell me whether CC50 at 5 days recorded for C[C@H]1CC[C@]2(CC(CCF)=NO2)[C@H]2CN1C(=O)c1c(O)c(=O)c(C(=O)NCc3c(F)cc(F)cc3F)cn12 is less than 30 µM?
Response: criterion met

Query: Item CO[C@@H]1CS[C@]2(CC[C@H](C)N3C[C@H]2n2cc(C(=O)NCc4c(F)cc(F)cc4F)c(=O)c(O)c2C3=O)O1 (single isomer, unassigned) [170 (peak 2)] : CC50 at 5 days beneath 30 µM, strictly?
Response: criterion not met

Query: Does this compound meet the criterion CC50 at 5 days < 30 µM? COCC1=NO[C@@]2(CC[C@H](C)N3C[C@H]2n2cc(C(=O)NCc4ccc(F)cc4F)c(=O)c(O)c2C3=O)C1
Response: criterion met

Query: Does the reported CC50 at 5 days of the following compound sit strictly below 30 µM? C[C@H]1CC[C@]2(CC(=O)N(C)O2)[C@H]2CN1C(=O)c1c(O)c(=O)c(C(=O)NCc3c(F)cc(F)cc3F)cn12
Response: criterion not met

Values were extracted from patent US20250115620A1.
